Data provenance is ChEMBL document CHEMBL1131273.

target: Human immunodeficiency virus type 1 protease (Human immunodeficiency virus 1, UniProt Q72874)
pKi: −log10 of the molar value.
The reader will find reported pKi values listed item by item below.

| QUERY_SMILES | pKi |
| --- | --- |
| Cc1ccccc1C(=O)N[C@@H](Cc1ccccc1)[C@@H](O)C[C@H](Cc1ccccc1)NC(=O)c1ccccc1NC(=O)OCc1ccccn1 | 9.57 |
| Cc1c(O)cccc1C(=O)N[C@@H](Cc1ccccc1)C[C@H](O)[C@H](Cc1ccccc1)NC(=O)c1ccccc1NC(=O)OCc1ccccn1 | 9.17 |
| O=C(Nc1ccccc1C(=O)N[C@@H](Cc1ccccc1)[C@H](O)[C@H](O)[C@H](Cc1ccccc1)NC(=O)c1ccccc1NC(=O)OCc1ccccn1)OCc1ccccn1 | 10.15 |
| O=C(Nc1ccccc1C(=O)N[C@@H](Cc1ccccc1)[C@@H](O)[C@@H](O)[C@H](Cc1ccccc1)NC(=O)c1cccc(O)c1)OCc1ccccn1 | 8.77 |
| CC(C)(C)OC(=O)N[C@@H](Cc1ccccc1)[C@@H](O)[C@@H](O)[C@H](Cc1ccccc1)NC(=O)c1ccccc1NC(=O)OCc1ccccn1 | 9.89 |
| Cc1c(N)cccc1C(=O)N[C@@H](Cc1ccccc1)[C@@H](O)C[C@H](Cc1ccccc1)NC(=O)c1ccccc1NC(=O)OCc1ccccn1 | 9.92 |
